A collection of molecules and their measured Ratio IC50
Test: Selectivity index, ratio of IC50 for inhibition of human erythrocyte AChE to IC50 for inhibition of human serum BuChE
Answer field: number only, no words.

> print(dat)
                         compound.structure  readout.number
1  COc1ccc2c(c1)c(C=O)cn2CCCCCCCCCCN(C)Cc1ccc(O)cc1            3.16
2  COc1ccc2c(c1)c(C=O)cn2CCCCCCCCCCCCN(C)Cc1cccc(O)c1             510
3  COc1ccc2c(c1)c(C=O)cn2CCCCCCCCCCN(C)Cc1cccc(O)c1            23.8
4  CCN(CCCCCCCCCCCCn1cc(C=O)c2cc(OC)ccc21)Cc1cccc(O)c1            48.3
5  COc1ccc2c(c1)c(C=O)cn2CCCCCCCCN(C)Cc1cccc(O)c1            1.21

Please examine the following record next.
// query Ratio IC50 value for entry COc1ccc2c(c1)c(C=O)cn2CCCCCCCN(C)Cc1cccc(O)c1 1.13

====

A collection of compounds and their measured Papp at 18 h
Assay: in vitro
Conditions: PAMPA
Description: Permeability coefficient of the compound across blood brain barrier incubated for 18 hrs by PAMPA assay
Write the number in ×10⁻⁶ cm/s without appending the unit.

Past entries and their recorded results:
> print(dat)
                         compound.structure  property.name  display.unit  readout.number
1  COc1ccc2c(c1)c(C=O)cn2CCCCCCCCCCCCN(C)Cc1cccc(O)c1   Papp at 18 h    ×10⁻⁶ cm/s            4.71
2  COc1ccc2c(c1)c(C=O)cn2CCCCCCCCCCCCN(C)Cc1ccc(O)cc1   Papp at 18 h    ×10⁻⁶ cm/s              10
3          CN(C)CCCN1c2ccccc2Sc2ccc(Cl)cc21   Papp at 18 h    ×10⁻⁶ cm/s            5.93
4  COc1ccc2c(c1)c(C=O)cn2CCCCCCCCCCCCN(C)Cc1ccc(OC)c(OC)c1   Papp at 18 h    ×10⁻⁶ cm/s            5.27
5  COc1ccc2c(c1)c(C=O)cn2CCCCCCCN(C)Cc1cccc(O)c1   Papp at 18 h    ×10⁻⁶ cm/s            4.78

// query Papp at 18 h value for entry COc1ccc2c(c1)c(C=O)cn2CCCCCCCCN(C)Cc1cccc(O)c1 6.05

Also check COc1ccc2c(c1)c(C=O)cn2CCCCCCCCCN(C)Cc1ccc(O)cc1 5.85

====

Target: Cholinesterase (Equus caballus, UniProt P81908)
Sequence (P81908 whole entry): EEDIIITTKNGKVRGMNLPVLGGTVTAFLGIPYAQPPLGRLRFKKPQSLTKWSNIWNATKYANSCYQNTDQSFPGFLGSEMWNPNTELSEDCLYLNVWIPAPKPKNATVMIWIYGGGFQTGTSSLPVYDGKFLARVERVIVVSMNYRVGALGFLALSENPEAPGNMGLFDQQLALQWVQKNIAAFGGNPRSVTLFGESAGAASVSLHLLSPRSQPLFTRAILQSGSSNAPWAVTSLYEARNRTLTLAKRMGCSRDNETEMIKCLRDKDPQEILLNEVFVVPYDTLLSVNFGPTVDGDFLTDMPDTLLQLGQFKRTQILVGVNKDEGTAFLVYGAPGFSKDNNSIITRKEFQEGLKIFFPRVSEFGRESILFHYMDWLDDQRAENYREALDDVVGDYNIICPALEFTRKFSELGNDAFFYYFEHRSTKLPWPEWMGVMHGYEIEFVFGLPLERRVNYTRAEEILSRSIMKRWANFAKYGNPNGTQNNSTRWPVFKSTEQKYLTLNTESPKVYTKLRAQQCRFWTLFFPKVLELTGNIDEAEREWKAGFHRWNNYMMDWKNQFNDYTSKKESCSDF
Assay: Inhibition of equine serum BuChE using ATCI and BTCI as substrate preincubated for 5 mins followed by substrate addition and measured after 3 mins by DTNB-reagent based Ellman's method
A collection of compounds and their measured log10 IC50
Could you please treat all values as log10 of IC50 in µM?

> print(dat)
                         compound.structure  readout.number
1  COc1cccc(CN(C)CCCCCCCCCCCCn2cc(C=O)c3cc(OC)ccc32)c1           -0.37

Record lookup: for Cholinesterase (Equus caballus, UniProt P81908), what log10 IC50 belongs to CCN(CCCCCCCCCCCCn1cc(C=O)c2cc(OC)ccc21)Cc1cccc(O)c1 ? -0.72

Also check COc1ccc2c(c1)c(C=O)cn2CCCCCCCCN(C)Cc1cccc(O)c1 0.72

Also check COc1ccc2c(c1)c(C=O)cn2CCCCCN(C)Cc1cccc(O)c1 1.66

Also check COc1ccc2c(c1)c(C=O)cn2CCCCN(C)Cc1ccc(O)cc1 1.30
